- Tested on: P388
- Assay protocol: Cytotoxicity against mouse P388 cells
- Type: functional, cell-based
Value kind: IC50 (nM)
// units = nM; emit number, no label

Value lookup for IC50; key = `O=C1C[C@@H]2/C(=C(O)\C=C\c3ccccc3)C(=O)C=C[C@@H]2O1` 40

====

- Test system: HT-29
- Assay protocol: Cytotoxicity against human HT-29 cells
- Assay type: functional, cell-based
In this section, each of the compounds is paired with its reported IC50.

INSERT INTO assay_data (line_notation, experimental_system, value_kind, measurement) VALUES
  ('O=C1C[C@@H]2C3=C(O[C@H](c4ccccc4)CC3=O)[C@@H]3[C@@H]([C@@H]4C=C5O[C@H](c6ccccc6)CC(=O)[C@@]53[C@H]3CC(=O)O[C@@H]43)[C@@H]2O1', 'HT-29', 'IC50', '> 10 µM'),
  ('CC(=O)O[C@H]1C(=O)[C@@]2(C)[C@H]([C@H](OC(=O)c3ccccc3)[C@]3(O)C[C@H](OC(=O)[C@H](O)[C@@H](NC(=O)c4ccccc4)c4ccccc4)C(C)=C1C3(C)C)[C@]1(OC(C)=O)CO[C@@H]1C[C@@H]2O', 'HT-29', 'IC50', '> 10 µM'),
  ('O=C(/C=C/c1ccc(O)cc1)OCCCCCCCCCCCCCCCCOC(=O)/C=C/c1ccc(O)cc1', 'HT-29', 'IC50', '> 10 µM');

Value lookup for IC50; key = `O=C1C[C@@H]2C3=C(C=C[C@@H]2O1)O[C@@H](c1ccccc1)CC3=O` 10.9 µM

====

- System: HT-29
- Assay protocol: Cytotoxicity against human HT-29 cells
- Type: functional, cell-based
In this section, each of the molecules is paired with its reported IC50.

Below are worked cases with known answers.
INSERT INTO results (line_notation, experimental_system, value_kind, measurement) VALUES
  ('O=C1CCC[C@@H]2C[C@H](C[C@](O)(CCc3ccccc3)O2)c2c(cc(O)c(C(=O)/C=C/c3ccccc3)c2O)O1', 'HT-29', 'IC50', '> 10 µM'),
  ('O=C1C[C@@H]2/C(=C(O)\C=C\c3ccccc3)C(=O)C=C[C@@H]2O1', 'HT-29', 'IC50', '0.32 µM'),
  ('O=C(O)C[C@H]1CC=CC(=O)/C1=C(O)/C=C/c1ccccc1', 'HT-29', 'IC50', '> 10 µg/mL');

Now look at this entry.
Kindly state the measured IC50 obtained for `O=C1C[C@@H]2C3=C(O[C@H](c4ccccc4)CC3=O)[C@@H]3[C@H]([C@@H]2O1)[C@H]1C[C@@H]2OC(=O)C[C@@H]2[C@@]3(C(=O)/C=C/c2ccccc2)C1=O` with HT-29. > 10 µM

Hey, just so you know, these numbers are from ChEMBL document CHEMBL3124898.
